Target: T1, human LIV-1 (human, UniProt Q13433 29-755)
T1 construct: whole, on cells; also called H-LIV1
T1 sequence (looked up): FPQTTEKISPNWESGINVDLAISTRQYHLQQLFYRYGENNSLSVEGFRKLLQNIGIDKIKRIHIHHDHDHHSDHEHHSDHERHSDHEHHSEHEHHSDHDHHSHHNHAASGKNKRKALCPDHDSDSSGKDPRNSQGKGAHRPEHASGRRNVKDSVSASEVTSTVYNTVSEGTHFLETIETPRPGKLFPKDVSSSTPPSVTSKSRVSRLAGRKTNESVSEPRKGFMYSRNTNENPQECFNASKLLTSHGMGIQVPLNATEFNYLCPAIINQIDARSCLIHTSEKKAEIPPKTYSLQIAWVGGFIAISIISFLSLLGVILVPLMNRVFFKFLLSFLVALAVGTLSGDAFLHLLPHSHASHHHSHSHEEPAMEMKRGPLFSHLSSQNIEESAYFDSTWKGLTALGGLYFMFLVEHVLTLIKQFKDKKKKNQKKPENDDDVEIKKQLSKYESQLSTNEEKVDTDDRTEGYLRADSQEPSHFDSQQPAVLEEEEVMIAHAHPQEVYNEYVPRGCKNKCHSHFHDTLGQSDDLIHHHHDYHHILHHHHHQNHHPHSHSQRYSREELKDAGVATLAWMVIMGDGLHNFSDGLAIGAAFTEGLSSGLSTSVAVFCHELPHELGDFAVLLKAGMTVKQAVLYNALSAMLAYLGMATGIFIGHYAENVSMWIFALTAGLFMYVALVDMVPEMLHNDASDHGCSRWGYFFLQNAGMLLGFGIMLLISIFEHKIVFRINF
Experiment: FACS, HEK293/H_LIV-1 cells
Values of Top (MFI) strictly less than 40000 MFI map to y, and values of at least 40000 MFI map to n.

Binder	Classification
5D6B10.Z2 (antibody, V domains shown) VH: QVQLVESGGGVVQPGRSLRLSCAVSGFSLTTYGIHWVRQAPGKGLEWLAVIWTGGTTDYNAAFISRFTISKDNSKSTLYLQMNSLRAEDTAVYYCARGPSSYWGQGTLVTVSS VL: EIVMTQSPATLSVSPGERATVSCKASQNVDTNVVWYQQKPGQSPRALIHSASYRYSGVPDRFSGSGSGTDFTLTISSLQSEDFAVYFCQQYNNYPWTFGQGTKVEIK	n
5D6B10.Z5 (antibody, V domains shown) VH: QVQLVESGGGVVQPGRSLRLSCTVSGFSLTTYGIHWVRQSPGKGLEWLGVIWTGGTTDYNAAFISRLTISKDNSKSTLYFQMNSLRAEDTAVYYCARGPSSYWGQGTLVTVSS VL: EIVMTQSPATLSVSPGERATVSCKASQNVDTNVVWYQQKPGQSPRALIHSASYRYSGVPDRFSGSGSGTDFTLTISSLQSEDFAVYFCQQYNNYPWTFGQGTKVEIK	n
5D6B10.Z12 (antibody, V domains shown) VH: QVQLQESGPGLVKPSGTLSLTCAVSGFSLTTYGIHWVRQSPGKGLEWLGVIWTGGTTDYNAAFISRLTISKDKSKNQVSLKLSSVTAADTAVYYCARGPSSYWGQGTLVTVSS VL: DIVMTQSPATLSVSPGERVTVSCKASQNVDTNVVWYQQKPGQSPRALIHSASYRYSGVPDRFSGSGSGTDFTLTISSVQSEDFAVYFCQQYNNYPWTFGGGTKLEIK	n
124H4D11.p2.z13 (antibody, V domains shown) VH: QVPLVQSGAEVVKPGASVKLSCKASGFNIKDYYMHWVKQAPGQGLEWIGWIDPENDDTEYDPKFQGRATMTADTSTSTAYLELSSLRSEDTAVYYCNARYYAFDYWGQGTTVTVSS VL: DVLMTQSPSSLSVSVGDRATISCRSSQSIVHSNANTYLEWYLQKPGKSPKLLIYKVSNRFSGVPDRFSGSGSGTEFTLTISSVQPEDFGVYYCFQGSQVPPTFGGGTRLEIK	y
5D6B10.Z11 (antibody, V domains shown) VH: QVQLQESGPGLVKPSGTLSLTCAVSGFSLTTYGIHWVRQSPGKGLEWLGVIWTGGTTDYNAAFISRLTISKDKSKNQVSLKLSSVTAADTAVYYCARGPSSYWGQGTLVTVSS VL: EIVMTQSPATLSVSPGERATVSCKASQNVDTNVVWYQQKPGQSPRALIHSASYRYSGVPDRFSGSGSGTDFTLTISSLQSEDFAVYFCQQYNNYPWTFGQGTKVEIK	n

Numbers sourced from patent US20240325555A1.
